Where do the numbers come from? From paper PMC3326528.

Substrate: C[S+](CC[C@H](N)C(=O)[O-])C[C@H]1O[C@@H](n2cnc3c(N)ncnc32)[C@H](O)[C@@H]1O
Assay: Discontinuous HPLC assay of 5′-FDA formation with SAM varied at 200 mM fluoride
Format: biochemical
Settings: pH 7.8; 25.0 °C
readoutName: Km (µM)
One number for each entry, in µM.

INPUT: Need Km, item T80S (Streptantibioticus cattleyicolor; T80S) (protein) AANSTRRPIIAFMSDLGTTDDSVAQCKGLMYSICPDVTVVDVCHSMTPWDVEEGARYIVDLPRFFPEGTVFATTTYPASGTTTRSVAVRIKQAAKGGARGQWAGSGAGFERAEGSYIYIAPNNGLLTTVLEEHGYLEAYEVTSPKVIPEQPEPTFYSREMVAIPSAHLAAGFPLSEVGRPLEDHEIVRFNRPAVEQDGEALVGVVSAIDHPFGNVWTNIHRTDLEKAGIGYGARLRLTLDGVLPFEAPLTPTFADAGEIGNIAIYLNSRGYLSIARNAASLAYPYHLKEGMSARVEAR
OUTPUT: 4.7
